target: human adenosine A2b receptor (Homo sapiens (Human)); assay: Cellular in vitro reporter gene test for A2b receptor activity (CHO-K1, CRE-luciferase, NECA stimulation); assay type: cell-based; conditions: recombinant CHO-K1 cell line, CRE-luciferase reporter, antagonism of EC50 concentration of NECA; in some cases means of several determinations, rounded to two significant figures; read-out: A2b receptor IC50
Sequence (P29275 whole entry): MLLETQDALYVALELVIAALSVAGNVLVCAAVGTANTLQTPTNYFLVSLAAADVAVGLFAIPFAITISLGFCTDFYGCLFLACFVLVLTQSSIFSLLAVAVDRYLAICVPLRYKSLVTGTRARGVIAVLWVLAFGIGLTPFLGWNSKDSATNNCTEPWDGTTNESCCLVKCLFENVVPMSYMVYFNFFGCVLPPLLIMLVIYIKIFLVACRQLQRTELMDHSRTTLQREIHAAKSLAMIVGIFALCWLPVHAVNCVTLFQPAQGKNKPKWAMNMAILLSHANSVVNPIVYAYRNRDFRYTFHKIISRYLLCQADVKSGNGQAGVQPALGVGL
Field: IC50. Provide a value for each of the compounds that follow.
Answers are plain numbers, in µM.

Cc1c(CN2CCNC2=O)sc2c1c(=O)n(C(C)C)c(=O)n2C :: 0.022

Required: IC50, one value per compound below.
1. CCn1c(=O)c2c(C)c(CN3CCN(C(C)C)C3=S)sc2n(CCOC)c1=O
2. COC(=O)N=C1NCCN1Cc1sc2c(c1C)c(=O)n(CC(C)OC)c(=O)n2CCC(F)(F)F (racemic) [Example 472]
3. CCn1c(=O)c2c(C)c(CN3Cc4ccccc4C3=O)sc2n(CCC(F)(F)F)c1=O
4. COCCn1c(=O)c2c(C)c(CN3CCNC3=O)sc2n(CC2CCCO2)c1=O (single isomer, unassigned) [Example 324]

Found:
0.049
0.0067
0.019
0.11

Batch request: IC50 for each of the following compounds.
1. Cc1c(CN2CCNC2=O)sc2c1c(=O)n(C(C)C)c(=O)n2CCF
2. CCSCCn1c(=O)n(CC)c(=O)c2c(C)c(CN3CCNC3=O)sc21
3. CCn1c(=O)c2c(C)c(CN3CCNC3=O)sc2n(CCOC(F)(F)F)c1=O
4. COCCn1c(=O)n(CC(F)F)c(=O)c2c(C)c(CN3CCNC3=S)sc21
5. COCCn1c(=O)c2c(C)c(CN3CCNC3=NC#N)sc2n(CC2CCO2)c1=O (single isomer, unassigned) [Example 366]

Found:
1: 0.009; 2: 0.036; 3: 0.00088; 4: 0.0077; 5: 0.04

====

biological target: human adenosine A2b receptor (Homo sapiens (Human)); test: Cellular in vitro reporter gene test for A2b receptor activity (CHO-K1, CRE-luciferase, NECA stimulation); format: cell-based; conditions: recombinant CHO-K1 cell line, CRE-luciferase reporter, antagonism of EC50 concentration of NECA; in some cases means of several determinations, rounded to two significant figures; read-out: A2b receptor IC50
readout-type: IC50 (nM)
Give bare numbers, in nM.

Please review the entries below; each comes with its answer.
COC(=O)N=C1NCCN1Cc1sc2c(c1C)c(=O)n(CC(C)OC)c(=O)n2CCC(F)(F)F (single isomer, unassigned) [Example 473] :: 3.4
Cc1c(CN2CCNC2=S)sc2c1c(=O)n(CC(F)(F)F)c(=O)n2CC1CCO1 (single isomer, unassigned) [Example 156] :: 5.7
CCn1c(=O)c2c(C)c(CN3CCNC3=O)sc2n(CCC(C)C)c1=O :: 9.9

Now consider a different compound.
Lookup: Please look up its IC50: `CCn1c(=O)c2c(C)c(CN3CCNC3=O)sc2n(CC(F)F)c1=O`
Found: 15

====

Give measured IC50 for each item. Keep answers brief.
target: human adenosine A2b receptor (Homo sapiens (Human)); experiment: Cellular in vitro reporter gene test for A2b receptor activity (CHO-K1, CRE-luciferase, NECA stimulation); type: cell-based; conditions: recombinant CHO-K1 cell line, CRE-luciferase reporter, antagonism of EC50 concentration of NECA; in some cases means of several determinations, rounded to two significant figures; read-out: A2b receptor IC50
Your reply should be a number followed by the unit it is expressed in.

Cc1c(Cn2nc[nH]c2=O)sc2c1c(=O)n(CC(F)(F)F)c(=O)n2CC1CCCO1 (single isomer, unassigned) [Example 435] :: 43 nM
COCCn1c(=O)n(CC(F)(F)F)c(=O)c2c(C)c(Cn3[nH]ccc3=O)sc21 :: 79 nM
CCn1c(=O)c2c(C)c(CN3CCNC3=O)sc2n(CCCF)c1=O :: 12 nM
Cc1c(Cn2cc[nH]c2=O)sc2c1c(=O)n(CC(F)(F)F)c(=O)n2CC1CCCO1 (single isomer, unassigned) [Example 343] :: 25 nM
Cc1c(CN2CCNC2=O)sc2c1c(=O)n(CC(F)F)c(=O)n2CC1CCO1 (single isomer, unassigned) [Example 217] :: 79 nM

Kindly give each listed record's IC50.
1. Cc1c(CN2CCNC2=O)sc2c1c(=O)n(CC(C)C)c(=O)n2CC(F)F
2. COCCn1c(=O)n(CC2CCCO2)c(=O)c2c(C)c(CN3CCNC3=O)sc21 (single isomer, unassigned) [Example 334]
3. [2H]C([2H])(c1sc2c(c1C)c(=O)n(CC(F)(F)F)c(=O)n2CCOC)N1CCNC1=O
4. CCOCCn1c(=O)n(CCOC)c(=O)c2c(C)c(CN3CCNC3=O)sc21
5. CCOCCn1c(=O)c2c(C)c(CN3CCNC(=O)C3=O)sc2n(CCCF)c1=O
6. Cc1c(CN2CCNC2=NC#N)sc2c1c(=O)n(CC(C)(C)C)c(=O)n2CCCF

Found:
1: 3.3 nM; 2: 120 nM; 3: 10 nM; 4: 93 nM; 5: 250 nM; 6: 11 nM

Provide the reported IC50 of each entry below, same order.
1. CCn1c(=O)c2c(C)c(CN3CCNC3=S)sc2n(CCC(F)(F)F)c1=O
2. Cc1c(Cn2nc[nH]c2=O)sc2c1c(=O)n(C(C)C)c(=O)n2CC1CCCO1 (single isomer, unassigned) [Example 426]

Found:
1: 1.9 nM; 2: 270 nM

Provide IC50 for all items below, preserving their order.
1. COCCn1c(=O)n(CCc2ccccc2)c(=O)c2c(C(F)(F)F)c(CN3CCOC3=O)sc21
2. Cc1c(CN2CCNC2=O)sc2c1c(=O)n(CC(C)(C)C)c(=O)n2CCCF
3. Cc1c(CN2CCNC2=O)sc2c1c(=O)n(CC(F)(F)F)c(=O)n2CCC(F)(F)F

Found:
1: 24 nM; 2: 4.4 nM; 3: 1.1 nM
